TESTED ON: UniProtKB Q9JIA2
Below: a set of entries, each annotated with reported Ki.

COMPOUND	UNIT	Ki
c1ccc2c(CCC3CCNCC3)c[nH]c2c1	nM	2760
COCCCC/C(=N\OCCN)c1ccc(C(F)(F)F)cc1	nM	1360
